Source listed as patent US20250034202A1.

system: BT474; test: Cell viability, breast cancer cells BT474; assay type: cell-based; settings: Homo sapiens, BT-474
Exercise: for every item that follows, state its recorded IC50.
Numbers only, in nM.

Compound	IC50 (nM)
CC1=C(O)C(=O)C=C2C1=CC=C1[C@@]2(C)CC[C@@]2(C)[C@@H]3C[C@](C)(C(=O)O)CC[C@]3(C)CC[C@]12C [Celastrol]	511

Next item in the queue.
Note to self: IC50 recorded for CC1=C(O)C(=O)C=C2C1=CC=C1[C@@]2(C)CC[C@@]2(C)[C@@H]3C[C@](C)(C(=O)NCCCOCCOCCOCCCNC(=O)CC4N=C(c5ccc(Cl)cc5)c5c(sc(C)c5C)-n5c(C)nnc54)CC[C@]3(C)CC[C@]12C (stereo partly drawn) [CS-JQ1] was 60.9
